Data provenance: ChEMBL document CHEMBL3259672

- system: DNA topoisomerase 1 (Homo sapiens) (UniProt P11387)
- Sequence (P11387 whole entry): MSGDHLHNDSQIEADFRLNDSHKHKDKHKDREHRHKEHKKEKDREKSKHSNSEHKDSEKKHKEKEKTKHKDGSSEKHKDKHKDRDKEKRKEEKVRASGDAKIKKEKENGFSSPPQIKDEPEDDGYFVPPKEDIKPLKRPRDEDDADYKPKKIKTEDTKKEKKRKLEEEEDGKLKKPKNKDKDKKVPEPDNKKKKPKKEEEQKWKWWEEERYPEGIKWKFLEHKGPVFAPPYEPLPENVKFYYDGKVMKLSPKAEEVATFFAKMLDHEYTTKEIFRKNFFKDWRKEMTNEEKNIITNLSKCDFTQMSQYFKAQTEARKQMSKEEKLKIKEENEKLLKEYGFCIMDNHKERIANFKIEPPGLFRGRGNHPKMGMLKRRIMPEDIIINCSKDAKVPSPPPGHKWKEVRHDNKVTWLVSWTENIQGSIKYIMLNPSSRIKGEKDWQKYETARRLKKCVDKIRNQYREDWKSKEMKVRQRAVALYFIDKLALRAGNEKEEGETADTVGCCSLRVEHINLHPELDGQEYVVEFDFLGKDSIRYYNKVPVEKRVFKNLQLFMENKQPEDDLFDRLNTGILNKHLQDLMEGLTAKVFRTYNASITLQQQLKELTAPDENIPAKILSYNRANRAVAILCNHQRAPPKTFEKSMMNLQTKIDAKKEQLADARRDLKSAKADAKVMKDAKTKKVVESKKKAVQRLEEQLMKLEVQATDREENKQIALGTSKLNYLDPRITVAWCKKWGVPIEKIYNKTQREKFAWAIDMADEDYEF
- assaySummary: Inhibition of human recombinant topoisomerase 1-mediated 117 bp DNA cleavage by agarose gel electrophoresis
- appliedConditions: in the assay text read “denaturing PAGE” for “agarose gel electrophoresis”
Activity calls are given as the source filed them. The rule behind the calls is not given here.
Response enum: Yes = active, No = inactive

[
  {
    "compound": "COC(=O)COc1cc2c3c(n(CCCN4CCOCC4)c(=O)c2cc1OC)-c1cc2c(cc1C3=O)OCO2",
    "class": "Yes"
  }
]

For this compound, state the assay outcome: COc1cc2c(=O)n(CCCN3CCOCC3)c3c(c2cc1OCC(=O)NN)C(O)c1cc2c(cc1-3)OCO2 (stereo unspecified)
No

Status in this test for C=CCOc1cc2c3c(n(CCCN4CCOCC4)c(=O)c2cc1OC)-c1cc2c(cc1C3=O)OCO2 ?
No

Recorded call for COc1cc2c(=O)n(CCCN3CCOCC3)c3c(c2cc1OCCCN1CCOCC1)C(=O)c1cc2c(cc1-3)OCO2 ?
Yes

Field: outcome | Entry: COc1cc2c(=O)n(CCCN3CCOCC3)c3c(c2cc1OCCCN)C(=O)c1cc2c(cc1-3)OCO2
No

For COc1cc2c(=O)n(CCCN3CCOCC3)c3c(c2cc1O)C(=O)c1cc2c(cc1-3)OCO2 , which call appears in the assay record?
Yes
